All values here come from patent US9518064B2.

I'd be grateful if you could share measured IC50 for these entries.
# system_name: PAR4 (Homo sapiens (Human))
# Sequence (Q96RI0 18-385): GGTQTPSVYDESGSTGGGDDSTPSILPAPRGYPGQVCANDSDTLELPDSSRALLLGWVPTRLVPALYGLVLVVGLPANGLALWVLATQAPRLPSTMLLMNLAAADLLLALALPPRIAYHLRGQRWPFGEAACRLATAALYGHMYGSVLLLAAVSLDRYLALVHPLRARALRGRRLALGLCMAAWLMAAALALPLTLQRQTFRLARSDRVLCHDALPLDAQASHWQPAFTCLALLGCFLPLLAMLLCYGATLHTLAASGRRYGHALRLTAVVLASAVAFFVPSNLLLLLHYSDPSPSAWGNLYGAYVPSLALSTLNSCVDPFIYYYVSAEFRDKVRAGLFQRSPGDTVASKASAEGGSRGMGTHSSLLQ
# experiment_notes: FLIPR assay in PAR4-expressing HEK293 cells (calcium mobilization)
# Type: cell-based
# conditions_used: PAR4 antagonist activity, FLIPR assay as described in Example A
One number for each entry, in nM.

Consider the following illustrative entries.
>>> measured_number("COc1cc(OCc2cccc(C3(OC)CCOCC3)n2)c2cc(-c3cn4nc(OC)sc4n3)oc2c1")
0.23
>>> measured_number("COc1cc(OCc2cccc(-c3ccc(N4CCOCC4)nc3)c2)c2cc(-c3cn4nc(OC)sc4n3)oc2c1")
4.81
>>> measured_number("COc1ccc(-c2cccc(COc3cc(OC)cc4oc(-c5cn6nc(OC)sc6n5)cc34)n2)cc1")
0.95

Given COc1cc(OCc2cccc(-c3ncc(Cl)cc3C)c2)c2cc(-c3cn4nc(OC)sc4n3)oc2c1 , state its recorded IC50.
0.56
